Listed below: Percent Effect values for each entry.
Target: Histidine--tRNA ligase (Leishmania infantum) (UniProt A4I591)
Sequence (A4I591 as listed by the source): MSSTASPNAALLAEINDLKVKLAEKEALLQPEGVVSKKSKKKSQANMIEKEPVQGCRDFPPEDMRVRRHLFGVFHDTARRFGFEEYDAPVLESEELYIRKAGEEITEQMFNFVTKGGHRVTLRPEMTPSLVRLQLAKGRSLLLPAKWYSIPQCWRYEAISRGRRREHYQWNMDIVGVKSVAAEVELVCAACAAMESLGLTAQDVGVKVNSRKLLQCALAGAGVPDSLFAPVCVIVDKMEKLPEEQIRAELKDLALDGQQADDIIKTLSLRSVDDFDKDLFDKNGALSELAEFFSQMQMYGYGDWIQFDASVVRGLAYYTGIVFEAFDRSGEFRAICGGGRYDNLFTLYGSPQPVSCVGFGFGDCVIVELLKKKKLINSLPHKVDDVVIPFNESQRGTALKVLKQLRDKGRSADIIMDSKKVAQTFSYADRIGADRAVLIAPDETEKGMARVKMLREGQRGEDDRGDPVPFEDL
Test: Leishmania infantum Histidine tRNA synthetase (LdHisRS)
Format: functional
Set-up: scale not given: in the data most compounds retested in dose-response had high values
Conditions: 30 µM
The whole screen tested about 69,000 compounds, of which about 420 (0.61%) showed an effect of 50% or more. For the sample, strong results were picked, then their nearest neighbours and some compounds at random.
observed.property: Percent Effect (%)

INSERT INTO measurements (entry_smiles, measured_result) VALUES
  ('COc1ccc(CCN)cc1-c1ccc(O)cc1', -4.22),
  ('COc1ccc(CCN)cc1-c1ccc(C(N)=O)cc1', 71.8),
  ('CNCCc1nc2cc(Cl)ccc2[nH]1', 14.6),
  ('O=C1[C@@H]2CCN(C3CCC3)C[C@@H]2OCCN1Cc1ccncc1', 17.2),
  ('O=C1[C@H]2CN(CC3CC3)C[C@H]2CN1c1ccsc1', 3.01),
  ('CNC(=O)[C@H]1C[C@@H]2CN(c3cc(OC)ncn3)C[C@@H]2N1C(C)C', -7.02),
  ('c1cnc(N2CCO[C@H]3CN(CC4CCOCC4)C[C@H]32)nc1', 11.7),
  ('Cc1cccc2cc(CN3CCCN4CCC[C@H]4C3)c(=O)[nH]c12', 17.5),
  ('COc1ccc2c(c1)c(C(=O)Nc1nnn[nH]1)cn2C(C)C', 52.1),
  ('c1cc(COC[C@]23COC[C@H]2CN(Cc2ccsc2)C3)ccn1', 10.1);
